# Experimental context: 250 mg portions of each compound as filter; smoke from one cigarette drawn through 3 mls of distilled water; read at 405 nm; compared with control cigarette
Assay endpoint: % TAR REMOVAL

Compound | % TAR REMOVAL
O=C1c2ccccc2C(=O)C1(O)C1(O)C(=O)c2ccccc2C1=O [Hydrindantin] | 95%
O=CC(=O)c1ccccc1 [Phenylglyoxal] | 53%

From here, focus on the item given below.
In: Give the measured % TAR REMOVAL of O=C1c2ccccc2C(=O)C1(O)O [Ninhydrin] .
Out: 83%

* * *

# Experimental context: 250 mg portions of each compound as filter; smoke from one cigarette drawn through 3 mls of distilled water; read at 405 nm; compared with control cigarette
Entry class follows % TAR REMOVAL: low value: < 50%; medium value: ≥ 50% and < 80%; high value: ≥ 80%

Observe how each entry below is paired with its result.
Compound | Category label
C[C@H](NC(=O)OC(C)(C)C)C(=O)ON1C(=O)CCC1=O | low value
CC(C)(C)OC(=O)NCCCCCC(=O)ON1C(=O)CCC1=O | medium value
O=C(C=CC=Cc1ccccc1)C=CC=Cc1ccccc1 | high value
O=Cc1ccccc1C=O | high value
CC12CCC(C(=O)C1=O)C2(C)C (stereo not shown) | medium value

In: Quick check: band for "CC1(C)CC(=O)CC(=O)C1"
Out: low value

In: Request: "O=C1NC(=O)C(=O)C(=O)N1"
Out: high value

In: Next: "O=Cc1cccc(OCCOc2cccc(C=O)c2)c1"
Out: low value

In: Next entry: "O=C(/C=C/C(=O)c1ccccc1)c1ccccc1"
Out: high value
